Origin of values: patent US20180244785A1

ASSAY_SYSTEM: soluble FGFR2c receptor protein (human, UniProt P21802 148-377)
Sequence (P21802 148-377): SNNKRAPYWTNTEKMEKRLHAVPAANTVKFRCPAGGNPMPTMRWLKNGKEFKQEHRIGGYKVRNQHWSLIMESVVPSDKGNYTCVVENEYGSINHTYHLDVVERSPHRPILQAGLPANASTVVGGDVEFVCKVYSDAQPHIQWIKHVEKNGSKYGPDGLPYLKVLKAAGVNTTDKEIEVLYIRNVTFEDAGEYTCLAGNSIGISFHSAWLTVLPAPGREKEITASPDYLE
ASSAY_REMARKS: BLI Octet RED96, antibody on anti-hIgG Fc tip
Sorting guide: entries reporting Kd beneath 9 nM go in the Criterion met pile, the rest go in the Criterion not met pile.

Identify whether the binder Vh2 combined with the VL of Ab15 (antibody, V domains shown, captured on anti-human IgG Fc tips) VH: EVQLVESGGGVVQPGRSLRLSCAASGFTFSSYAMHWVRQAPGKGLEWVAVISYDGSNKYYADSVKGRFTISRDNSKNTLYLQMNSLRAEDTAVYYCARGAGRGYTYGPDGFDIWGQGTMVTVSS VL: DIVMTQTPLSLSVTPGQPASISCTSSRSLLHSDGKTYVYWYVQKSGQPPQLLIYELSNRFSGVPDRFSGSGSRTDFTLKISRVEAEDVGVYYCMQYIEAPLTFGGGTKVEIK records Kd below 9 nM.
Criterion met

Does the reported Kd of the following binder sit strictly below 9 nM? Vk10 combined with the VH of Ab15 (antibody, V domains shown, captured on anti-human IgG Fc tips) VH: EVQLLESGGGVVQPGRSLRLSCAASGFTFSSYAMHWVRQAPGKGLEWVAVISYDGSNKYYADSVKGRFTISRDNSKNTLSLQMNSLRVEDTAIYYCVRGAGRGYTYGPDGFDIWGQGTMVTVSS VL: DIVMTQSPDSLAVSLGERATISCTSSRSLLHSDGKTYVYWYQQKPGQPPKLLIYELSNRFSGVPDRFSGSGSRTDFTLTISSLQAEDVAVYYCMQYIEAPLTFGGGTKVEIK
Criterion met

Problem: For the binder Vk7 combined with the VH of Ab15 (antibody, V domains shown, captured on anti-human IgG Fc tips) VH: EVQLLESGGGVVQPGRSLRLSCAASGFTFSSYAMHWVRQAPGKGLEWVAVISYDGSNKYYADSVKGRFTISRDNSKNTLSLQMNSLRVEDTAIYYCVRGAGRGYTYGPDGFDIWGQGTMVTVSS VL: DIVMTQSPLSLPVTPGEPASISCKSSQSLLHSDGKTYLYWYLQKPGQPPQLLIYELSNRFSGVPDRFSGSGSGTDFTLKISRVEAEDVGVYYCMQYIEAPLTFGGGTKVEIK , is Kd under 9 nM?
Criterion not met

Dear colleague, could you confirm whether Kd of Vk12 combined with the VH of Ab15 (antibody, V domains shown, captured on anti-human IgG Fc tips) VH: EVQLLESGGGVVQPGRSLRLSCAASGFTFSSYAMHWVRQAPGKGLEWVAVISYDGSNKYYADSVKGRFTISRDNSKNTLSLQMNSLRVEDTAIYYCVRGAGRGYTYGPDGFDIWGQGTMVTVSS VL: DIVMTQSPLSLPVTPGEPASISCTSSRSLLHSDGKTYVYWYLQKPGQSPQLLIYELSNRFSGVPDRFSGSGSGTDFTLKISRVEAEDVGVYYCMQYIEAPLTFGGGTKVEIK falls below 9 nM? Thanks.
Criterion not met

Confirm or reject: Kd of Vk3 combined with the VH of Ab15 (antibody, V domains shown, captured on anti-human IgG Fc tips) VH: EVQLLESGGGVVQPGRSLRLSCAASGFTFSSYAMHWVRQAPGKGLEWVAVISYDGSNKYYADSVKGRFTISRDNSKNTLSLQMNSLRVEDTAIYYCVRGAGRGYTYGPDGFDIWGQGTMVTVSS VL: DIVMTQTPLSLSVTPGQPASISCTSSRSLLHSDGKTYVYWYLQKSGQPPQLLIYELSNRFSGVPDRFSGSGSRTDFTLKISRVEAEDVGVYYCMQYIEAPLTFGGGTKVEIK lies strictly below 9 nM
Criterion not met
